System: K562
Assay Comment: Antiproliferative activity against human K562 cells at 10 uM incubated for 48 hrs by sulforhodamine B assay
Assay type: functional, cell-based
Activity calls are given as the source filed them. The calls are words filed in the database; no cut-off is given here.
In this exercise, the only acceptable responses are active, inactive

• CC(=O)O[C@@H](C)[C@H]1O[C@H]2CC(=O)O[C@H]2[C@@H]1O = inactive
• O=C1C[C@H]2O[C@H]([C@@H](O)c3ccccc3)[C@H](O)[C@H]2O1 = active
• O=C1C[C@H]2O[C@H]([C@H](O)c3ccccc3)[C@H](O)[C@H]2O1 = active
• CC(=O)O[C@H](C)[C@H]1O[C@H]2CC(=O)O[C@H]2[C@@H]1O = inactive
• CC(=O)O[C@@H](C)[C@@H]1O[C@@H]2CC(=O)O[C@@H]2[C@H]1O = inactive

Identify the outcome logged in this assay for the compound shown: `O=C(/C=C/c1ccccc1)O[C@H](c1ccccc1)[C@@H]1O[C@@H]2CC(=O)O[C@@H]2[C@H]1O` active

// param item: `CC(=O)O[C@H](C)[C@@H]1O[C@@H]2CC(=O)O[C@@H]2[C@H]1O` ; yields the recorded call inactive
